Below, each of the molecules is paired with its reported viability, T/C value.
Tested on: 454973-116-R2-J3-PDC complex spheroid viability
Experiment: Anticancer human tumor 454973-116-R2-J3-PDC patient-derived pancreatic carcinoma cell line growth inhibition [POLQ]
Conditions: second compound 0.316 µM; first compound 0.1 µM; stronger effect = lower value
Number only, in %; omit the unit.

| molecule | test_system | numeric_readout |
| --- | --- | --- |
| COc1ccc([C@@H](O)c2cc(-c3ncnc4cc(N5CCOCC5)ccc34)c(F)cc2Cl)nn1 + Cc1cccc(N(C)C(=O)C2C(O)CCN2c2nc(C)cc(C(F)(F)F)c2C#N)c1 | 454973-116-R2-J3-PDC complex spheroid viability | 99.8 |
| CC1COCCN1c1cc(C2(S(C)(=N)=O)CC2)nc(-c2ccnc3[nH]ccc23)n1 (stereo not given) + Cc1cccc(N(C)C(=O)C2C(O)CCN2c2nc(C)cc(C(F)(F)F)c2C#N)c1 | 454973-116-R2-J3-PDC complex spheroid viability | 107 |
| CCc1cc2c(N3CCc4c(cc(Cn5ccnc5)cc4-c4cn(C)nc4C(F)(F)F)C3=O)cc(C)nc2c(OC)n1 + COC1C(OC(N)=O)C(O)C(Oc2ccc3c(O)c(NC(=O)c4ccc(O)c(CC=C(C)C)c4)c(=O)oc3c2C)OC1(C)C | 454973-116-R2-J3-PDC complex spheroid viability | 103 |
| CC(C)n1c(=O)n(C)c2cnc3cc(F)c(-c4ccc(OCCCN5CCCCC5)nc4)cc3c21 + Cc1cccc(N(C)C(=O)C2C(O)CCN2c2nc(C)cc(C(F)(F)F)c2C#N)c1 | 454973-116-R2-J3-PDC complex spheroid viability | 110 |
| CCCS(=O)(=O)Nc1ccc(F)c(C(=O)c2c[nH]c3ncc(-c4ccc(Cl)cc4)cc23)c1F + COC1C(OC(N)=O)C(O)C(Oc2ccc3c(O)c(NC(=O)c4ccc(O)c(CC=C(C)C)c4)c(=O)oc3c2C)OC1(C)C | 454973-116-R2-J3-PDC complex spheroid viability | 114 |
| COc1cccc2c1C(=O)c1c(O)c3c(c(O)c1C2=O)CC(O)(C(=O)CO)CC3OC1CC(N)C(O)C(C)O1 (stereo not given) + Cc1cccc(N(C)C(=O)C2C(O)CCN2c2nc(C)cc(C(F)(F)F)c2C#N)c1 | 454973-116-R2-J3-PDC complex spheroid viability | 30.2 |
| O=C(Nc1ccc(O)c(NS(=O)(=O)c2ccc(F)cc2)c1)c1ccc(-c2ccccc2)cc1 + COC1C(OC(N)=O)C(O)C(Oc2ccc3c(O)c(NC(=O)c4ccc(O)c(CC=C(C)C)c4)c(=O)oc3c2C)OC1(C)C | 454973-116-R2-J3-PDC complex spheroid viability | 110 |
| CNCc1ccc(-c2[nH]c3cc(F)cc4c3c2CCNC4=O)cc1 + COC1C(OC(N)=O)C(O)C(Oc2ccc3c(O)c(NC(=O)c4ccc(O)c(CC=C(C)C)c4)c(=O)oc3c2C)OC1(C)C | 454973-116-R2-J3-PDC complex spheroid viability | 113 |

In: Give viability, T/C; test system 454973-116-R2-J3-PDC complex spheroid viability; molecule COc1ccc([C@@H](O)c2cc(-c3ncnc4cc(N5CCOCC5)ccc34)c(F)cc2Cl)nn1 + COC1C(OC(N)=O)C(O)C(Oc2ccc3c(O)c(NC(=O)c4ccc(O)c(CC=C(C)C)c4)c(=O)oc3c2C)OC1(C)C
Out: 107

In: Give viability, T/C; test system 454973-116-R2-J3-PDC complex spheroid viability; molecule O=c1[nH]cc(F)c(=O)[nH]1 + Nc1ccc(C#CCN(C(=O)Cc2ncc(C(F)(F)F)cc2C(F)(F)F)c2ccc(F)cc2)nn1
Out: 106

----------
System: 454973-116-R2-J3-PDC complex spheroid viability
Experiment: Anticancer human tumor 454973-116-R2-J3-PDC cell line growth inhibition [POLQ]; active means viability on the fitted dose curve at most 10% of control; inactive means the rest;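 note: spheroids exposed to drugs for seven days before measurement; percent viability relative to DMSO vehicle control wells taken as 100%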
Details: second compound 3.16 µM; first compound 3.16 µM
The reply should be one of these categories: yes (1) = active, no (0) = inactive

Here's what some known entries look like.
| molecule | assigned_class |
| --- | --- |
| CCc1cc2c(N3CCc4c(cc(Cn5ccnc5)cc4-c4cn(C)nc4C(F)(F)F)C3=O)ccnc2c(OC)n1 + Cc1cccc(N(C)C(=O)C2C(O)CCN2c2nc(C)cc(C(F)(F)F)c2C#N)c1 | no (0) |
| COc1cccc2c1C(=O)c1c(O)c3c(c(O)c1C2=O)CC(O)(C(=O)CO)CC3OC1CC(N)C(O)C(C)O1 (stereo not given) + Cc1cccc(N(C)C(=O)C2C(O)CCN2c2nc(C)cc(C(F)(F)F)c2C#N)c1 | yes (1) |
| C#Cc1c(F)ccc2cc(O)cc(-c3ncc4c(N5CC6CCC(C5)N6)nc(OCC56CCCN5CC(F)C6)nc4c3F)c12 (stereo not given) + Nc1ccc(C#CCN(C(=O)Cc2ncc(C(F)(F)F)cc2C(F)(F)F)c2ccc(F)cc2)nn1 | no (0) |
| CNCc1ccc(-c2[nH]c3cc(F)cc4c3c2CCNC4=O)cc1 + Cc1cccc(N(C)C(=O)C2C(O)CCN2c2nc(C)cc(C(F)(F)F)c2C#N)c1 | no (0) |

Switching to the query record.
In: Hi, sorry to bother you, what did the test record for CCc1cc2c(N3CCc4c(cc(Cn5ccnc5)cc4-c4cn(C)nc4C(F)(F)F)C3=O)ccnc2c(OC)n1 + Nc1ccc(C#CCN(C(=O)Cc2ncc(C(F)(F)F)cc2C(F)(F)F)c2ccc(F)cc2)nn1 ?
Out: no (0)

----------
Tested on: 454973-116-R2-J3-PDC complex spheroid viability
Assay: Anticancer human tumor 454973-116-R2-J3-PDC cell line growth inhibition [POLQ];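 note: spheroids exposed to drugs for seven days before measurement; percent viability relative to DMSO vehicle control wells taken as 100%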
Settings: second compound 1 µM; first compound 3.16 µM; stronger effect = lower value
Experimental: Multicellular complex tumor spheroid response to Polymerase (POL) inhibitors (novobiocin, ART-558, RP6685) in combination with a variety of drugs and investigational agents in selected tumor cell lines The POL inhibitors (novobiocin, ART-558, and RP6685) were evaluated both individually and in combination with standard of care and investigational anticancer small molecules within a complex spheroid model of solid tumors. . […]
assay_readout: viability, T/C

Below, 4 compounds whose answers are already recorded.
| compound | viability, T/C |
| --- | --- |
| O=C(c1cc(Cc2n[nH]c(=O)c3ccccc23)ccc1F)N1CCN(C(=O)C2CC2)CC1 + Cc1cccc(N(C)C(=O)C2C(O)CCN2c2nc(C)cc(C(F)(F)F)c2C#N)c1 | 91.1% |
| O=C(Nc1ccc(O)c(NS(=O)(=O)c2ccc(F)cc2)c1)c1ccc(-c2ccccc2)cc1 + COC1C(OC(N)=O)C(O)C(Oc2ccc3c(O)c(NC(=O)c4ccc(O)c(CC=C(C)C)c4)c(=O)oc3c2C)OC1(C)C | 109% |
| O=C(c1cc(Cc2n[nH]c(=O)c3ccccc23)ccc1F)N1CCN(C(=O)C2CC2)CC1 + COC1C(OC(N)=O)C(O)C(Oc2ccc3c(O)c(NC(=O)c4ccc(O)c(CC=C(C)C)c4)c(=O)oc3c2C)OC1(C)C | 97.5% |
| CCc1cc2c(N3CCc4c(cc(Cn5ccnc5)cc4-c4cn(C)nc4C(F)(F)F)C3=O)ccnc2c(OC)n1 + Nc1ccc(C#CCN(C(=O)Cc2ncc(C(F)(F)F)cc2C(F)(F)F)c2ccc(F)cc2)nn1 | 76.6% |

Continue with the next compound.
In: Quickly give me recorded viability, T/C for CNCc1ccc(-c2[nH]c3cc(F)cc4c3c2CCNC4=O)cc1 + COC1C(OC(N)=O)C(O)C(Oc2ccc3c(O)c(NC(=O)c4ccc(O)c(CC=C(C)C)c4)c(=O)oc3c2C)OC1(C)C
Out: 97.8%

----------
System: 454973-116-R2-J3-PDC complex spheroid viability
Test: Anticancer human tumor 454973-116-R2-J3-PDC cell line growth inhibition [POLQ]; active = viability on the fitted dose curve at most 10% of control; inactive = the rest;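 note: spheroids exposed to drugs for seven days before measurement; percent viability relative to DMSO vehicle control wells taken as 100%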
Conditions: second compound 10 µM; first compound 0.1 µM
The reply should be one of these categories: active, inactive

Here's what some known entries look like.
| molecule | assigned_class |
| --- | --- |
| C=CCn1c(=O)c2cnc(Nc3ccc(N4CCN(C)CC4)cc3)nc2n1-c1cccc(C(C)(C)O)n1 + Cc1cccc(N(C)C(=O)C2C(O)CCN2c2nc(C)cc(C(F)(F)F)c2C#N)c1 | inactive |
| C=CC(=O)N1CCN(c2nc(=O)n(-c3c(C)ccnc3C(C)C)c3nc(-c4c(O)cccc4F)c(F)cc23)C(C)C1 (stereo not given) + Nc1ccc(C#CCN(C(=O)Cc2ncc(C(F)(F)F)cc2C(F)(F)F)c2ccc(F)cc2)nn1 | inactive |
| CC1COCCN1c1cc(C2(S(C)(=N)=O)CC2)nc(-c2ccnc3[nH]ccc23)n1 (stereo not given) + Cc1cccc(N(C)C(=O)C2C(O)CCN2c2nc(C)cc(C(F)(F)F)c2C#N)c1 | inactive |
| CC[C@@]1(O)C(=O)OCc2c1cc1n(c2=O)Cc2cc3c(CN(C)C)c(O)ccc3nc2-1 + COC1C(OC(N)=O)C(O)C(Oc2ccc3c(O)c(NC(=O)c4ccc(O)c(CC=C(C)C)c4)c(=O)oc3c2C)OC1(C)C | inactive |

Switching to the query record.
In: Hi, sorry to bother you, what did the test record for CC[C@@]1(O)C(=O)OCc2c1cc1n(c2=O)Cc2cc3c(CN(C)C)c(O)ccc3nc2-1 + Nc1ccc(C#CCN(C(=O)Cc2ncc(C(F)(F)F)cc2C(F)(F)F)c2ccc(F)cc2)nn1 ?
Out: active
